Target: EP3 receptor (Homo sapiens, UniProt P43115)
Construct: purchased Millipore HTS092M
Sequence (P43115 1-390): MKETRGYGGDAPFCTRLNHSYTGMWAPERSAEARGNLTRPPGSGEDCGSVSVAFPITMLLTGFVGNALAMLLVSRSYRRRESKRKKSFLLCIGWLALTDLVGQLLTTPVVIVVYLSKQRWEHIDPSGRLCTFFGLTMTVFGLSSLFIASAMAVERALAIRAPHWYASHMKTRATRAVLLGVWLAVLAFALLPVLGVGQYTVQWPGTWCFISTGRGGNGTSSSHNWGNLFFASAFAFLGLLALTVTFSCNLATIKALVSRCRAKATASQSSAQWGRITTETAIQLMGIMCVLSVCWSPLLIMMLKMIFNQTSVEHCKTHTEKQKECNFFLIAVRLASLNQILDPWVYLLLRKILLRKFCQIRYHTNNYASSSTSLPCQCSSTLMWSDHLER
Assay: [3H]-PGE2 binding assay (EP3 competition binding)
Settings: [3H]-PGE2 Binding Ki
measurement.name: Ki (nM)
Reply with just the number (in nM).

> print(dat)
                                   compound                               test.system  measurement.name  measurement
1  CCn1ncc2c(F)cc(-c3ccc(C4CC5CCC(C4)N5C(=O)NC(C)C)c(=O)[nH]3)cc21 (centres unmarked) [compound 208]  EP3 receptor (Homo sapiens, UniProt P43115)                Ki          158

Could you now look at the following compound, please?
Record request: Ki value, item CCn1ncc2c(F)cc(-c3ccc(C4CC5CCC(C4)N5S(=O)(=O)C(C)C)c(=O)[nH]3)cc21 (centres unmarked) [compound 206]
25
